assay: Stability of the PG analogue during the preparation of the emulsion (HPLC); format: physicochemical; conditions: lipid emulsion prepared at 90° C., final concentration 5 μg/ml
Could you please report measured Stability during the preparation for the items listed next?
Give bare numbers, in %.

CCCCOC(=O)CCCCCCC1=C(OC(C)=O)C[C@@H](O)[C@@H]1/C=C/[C@@H](O)C[C@@H](C)CCCC = 75.6

Dear colleague, could you send me Stability during the preparation for each of the items below? Thanks.
1. CCCC[C@H](C)C[C@H](O)/C=C/[C@@H]1C(CCCCCCC(=O)OC)=C(OC(C)=O)C[C@H]1O
2. CCCCC[C@H](O)/C=C/[C@@H]1C(CCCCCCC(=O)OCCCC)=C(OC(C)=O)C[C@H]1O
3. CCCCC[C@H](O)/C=C/[C@H]1[C@H](O)CC(=O)[C@@H]1CCCCCCC(=O)O
4. CCCCC[C@H](O)/C=C/[C@@H]1C(CCCCCCC(=O)OC)=C(OC(C)=O)C[C@H]1O

### Response
[68.3, 72.1, 43.9, 70.4]

---

assay: Storage stability of the emulsion (HPLC); format: physicochemical; settings: emulsion stored 4 weeks at 40° C.; 40320 min
Storage stability: Remaining rate below 80% gives NO; Storage stability: Remaining rate at or above it gives YES.

Example entries and their recorded answers appear below.
CCCCOC(=O)CCCCCCC1=C(OC(C)=O)C[C@@H](O)[C@@H]1/C=C/[C@@H](O)C[C@@H](C)CCCC [Example 1] = YES
CCCCC[C@H](O)/C=C/[C@H]1[C@H](O)CC(=O)[C@@H]1CCCCCCC(=O)O [PGE1] = NO

### Prompt Given CCCCC[C@H](O)/C=C/[C@@H]1C(CCCCCCC(=O)OC)=C(OC(C)=O)C[C@H]1O [Example 2] , state whether its Storage stability: Remaining rate is at least 80%.
### Response NO

---

experiment: Storage stability of the emulsion (HPLC); type: physicochemical; details: 40° C.; calculated from change with time of remaining rate
observed_property: Storage stability: Decomposition reaction rate constant

Solved cases (4 shown):
CCCCC[C@H](O)/C=C/[C@@H]1C(CCCCCCC(=O)OCCCC)=C(OC(C)=O)C[C@H]1O = 8.30 d^-1 × 10^3
CCCCC[C@H](O)/C=C/[C@H]1[C@H](O)CC(=O)[C@@H]1CCCCCCC(=O)O = 113 d^-1 × 10^3
CCCC[C@H](C)C[C@H](O)/C=C/[C@@H]1C(CCCCCCC(=O)OC)=C(OC(C)=O)C[C@H]1O = 8.87 d^-1 × 10^3
CCCCOC(=O)CCCCCCC1=C(OC(C)=O)C[C@@H](O)[C@@H]1/C=C/[C@@H](O)C[C@@H](C)CCCC = 6.20 d^-1 × 10^3

### Prompt Storage stability: Decomposition reaction rate constant for "CCCCC[C@H](O)/C=C/[C@@H]1C(CCCCCCC(=O)OC)=C(OC(C)=O)C[C@H]1O" ?
### Response 11.8 d^-1 × 10^3

Measured values drawn from patent US5120870A for this set.
